- assayed.system: Polyunsaturated fatty acid lipoxygenase ALOX12 (Homo sapiens)
- procedure.summary: qHTS Assay for Inhibitors of 12-hLO (12-human lipoxygenase); also: % is scaled to controls: 0 for no effect and ±100 for the full control effect; nearly all actives have a fitted effect of over 55% in size
- condition.description: purified 12-hLO, xylenol orange hydroperoxide absorbance; series mostly up to 57.1 µM
Out of some 150,000 compounds screened, about 190 (0.13%) were called active. Another 2% or so got no clear call; they are omitted. What follows is part of a selection rich in actives, with near analogues and random picks from the rest.
endpoint.label: activity change, negative = inhibition

Use the examples below as a reference point.
test.smiles	value.observed
CCCCC/C=C\C/C=C\CCCCCCCCCC(=O)NCC(=O)O	inactive
CC(C)CCN1C(=O)c2ccc(C(=O)Nc3cccc(S(N)(=O)=O)c3)cc2C1=O	inactive
COC(=O)C1=C(C(=O)OC)[C@@H]2N(Cc3ccccc3)c3ccccc3[C@@]23C[C@@H](C(=O)OC)N(S(=O)(=O)c2ccc(C(F)(F)F)cc2)C3=N1	-1.93% [at 11.4 µM] (inactive)
COc1ccc(-c2nc3c(c4c2C[C@H](c2ccccc2)OC4)CN(C(=O)C2CC2)CC3)c(C)c1	-3.7% [at 11.4 µM] (inactive)
COc1cccc(-c2cc(=O)c3cc(NC(=O)c4ccc(C)cc4)ccc3[nH]2)c1	0.685% [at 0.00818 µM] (inactive)

Attention now turns to another entry.
Recorded activity change, negative = inhibition of C/C(CC(=O)NC(C)(C)C)=N\NC(=O)c1ccco1 , please. inactive
